# Tested on: HT29
// reported GI50 per item
Respond with the bare value in nM.

Below are worked cases with known answers.
{"columns": ["Compound", "GI50 / nM"],
 "data": [
  ["Clc1ccc(Nc2nnc(CNc3ccccc3)c3ccccc23)cc1 [Compound 16a]", 1460],
  ["Cc1nnc(Nc2ccc(NC(=O)Nc3ccc(Cl)cc3)cc2)c2ccccc12", 1780],
  ["O=C(Nc1ccc(Cl)cc1)Nc1ccc(Oc2nncc3ccccc23)cc1", 460],
  ["O=C(Nc1ccccc1)Nc1ccc(Oc2nnc(Cl)c3ccccc23)cc1 [Compound 13a]", 5260],
  ["COc1cccc(NCc2nnc(Nc3ccc(Cl)cc3)c3ccccc23)c1 [Compound 16d]", 340]
]}

What value of GI50 on HT29 does O=C(Nc1ccc(Cl)cc1)Nc1ccc(Nc2nncc3ccccc23)cc1 have? 2650

# repeat for Clc1ccc(Nc2nnc(COc3ccccc3)c3ccccc23)cc1 [Compound 17a] 420
